Values compiled from ChEMBL document CHEMBL5365534.

- System tested: Ketohexokinase (Homo sapiens, UniProt P50053)
- Sequence (P50053 whole entry): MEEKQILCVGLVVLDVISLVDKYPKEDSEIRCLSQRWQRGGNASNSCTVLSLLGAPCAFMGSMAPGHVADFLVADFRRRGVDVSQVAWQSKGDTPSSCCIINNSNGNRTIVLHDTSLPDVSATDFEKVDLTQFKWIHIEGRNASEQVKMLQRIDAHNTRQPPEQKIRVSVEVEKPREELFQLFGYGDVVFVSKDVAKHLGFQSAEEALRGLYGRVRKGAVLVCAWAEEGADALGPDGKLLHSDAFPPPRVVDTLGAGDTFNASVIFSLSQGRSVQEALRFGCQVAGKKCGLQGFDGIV
pIC50: −log10 of the molar value.
Recorded endpoint: pIC50

Examples with answers:
| Compound | pIC50 |
| --- | --- |
| C[C@H]1CCN1c1nc(N2CCC3(CC3C(=O)O)C2)cc(C(F)(F)F)c1C#N (some centres undefined) | 6.97 |
| C[C@H]1CCN1c1nc(N2C[C@H]3CC[C@H](C(=O)O)[C@H]3C2)cc(C(F)(F)F)c1C#N (racemic) | 7.66 |
| C[C@H]1CCN1c1nc(N2CC[C@H](OCC(=O)O)C2)c2c(n1)C(F)(F)CC2 | 7.27 |

A. C[C@H]1CCN1c1nc(N2CC[C@H](CCC(=O)O)C2)cc(C(F)(F)F)n1
B. C[C@H]1CCN1c1nc(N2C[C@H]3CC[C@H](C(=O)O)[C@H]3C2)c2c(n1)C(F)(F)CC2 (racemic)
### Prompt Which numeric pIC50 is bigger, that of A or that of B ? Lab note: record the label of whichever item you select.
### Response B
(B: 7.46, A: 6.07)

* * *

- Measurement protocol: physchem
- Measurement parameters: buffer, pH 7.4
Recorded endpoint: logD

| Compound | Recorded endpoint | Value measured |
| --- | --- | --- |
| C[C@H]1CCN1c1nc(N2C[C@@H](CC(=O)O)[C@H](O)C2)cc(C(F)(F)F)c1C#N (racemic) | logD | 0.93 |
| C[C@H]1CCN1c1nc(N2CC[C@H](OCC(=O)O)C2)c2c(n1)C(F)(F)CC2 | logD | -1.1 |
| C[C@H]1CCN1c1nc(N2CC(CC(=O)O)C(F)(F)C2)cc(C(F)(F)F)c1C#N (some centres undefined) | logD | 1.48 |
| C[C@H]1CCN1c1nc(N2C[C@H]3CC[C@H](C(=O)O)[C@H]3C2)cc(C(F)(F)F)c1C#N (racemic) | logD | 2.31 |

A. C[C@H]1CCN1c1nc(N2C[C@H]3CC[C@H](C(=O)O)[C@H]3C2)c2c(n1)C(F)(F)CC2 (racemic)
B. C[C@H]1CCN1c1nc(N2CC[C@H](CC(=O)O)C2)c2c(n1)C(F)(F)CC2
C. C[C@H]1CCN1c1nc(N2CCC3(CC3C(=O)O)C2)cc(C(F)(F)F)c1C#N (some centres undefined)
D. O=C(O)CC[C@H]1CCN(c2nc(N3CC[C@@H]3C(F)(F)F)nc3c2CCC3(F)F)C1
E. C[C@H]1CCN1c1nc(N2CC[C@H](CCC(=O)O)C2)c2c(n1)C(F)(F)CC2
### Prompt Thanks in advance: please rank these 5 entries by logD, highest to lowest. Rank them, then answer with their labels in that order.
### Response C, D, A, E, B
(C: 1.73, D: 0.86, A: 0.58, E: 0.14, B: 0.01)

* * *

- Measurement protocol: in vitro
- Measurement parameters: human, Caco-2
- Description: Apparent permeability of the compound across apical side to basolateral side in human Caco-2 cells at 10 uM incubated for 2 hrs by LC-MS/MS analysis
Recorded endpoint: Papp A→B at 2 h, 10 µM (×10⁻⁶ cm/s)

Examples with answers:
| Compound | Result units | Papp A→B at 2 h, 10 µM |
| --- | --- | --- |
| C[C@H]1CCN1c1nc(N2C[C@H]3CC[C@H](C(=O)O)[C@H]3C2)cc(C(F)(F)F)c1C#N (racemic) | ×10⁻⁶ cm/s | 18.3 |
| C[C@H]1CCN1c1nc(N2CC[C@H](CC(=O)O)C2)c2c(n1)C(F)(F)CC2 | ×10⁻⁶ cm/s | 1.47 |
| C[C@H]1CCN1c1nc(N2CC(CC(=O)O)C(F)(F)C2)cc(C(F)(F)F)c1C#N (stereo not given in full) | ×10⁻⁶ cm/s | 10.9 |

1. O=C(O)CC[C@H]1CCN(c2nc(N3CC[C@@H]3C(F)(F)F)nc3c2CCC3(F)F)C1
2. C[C@H]1CCN1c1nc(N2CCC3(CC3C(=O)O)C2)cc(C(F)(F)F)c1C#N (stereo not given in full)
### Prompt For the pair 1 and 2 , which member has the lower Papp A→B at 2 h, 10 µM number? Lab note: record the label of whichever item you select.
### Response 1
(1: 5.14 ×10⁻⁶ cm/s, 2: 16.2 ×10⁻⁶ cm/s)
